biological target: HIV Env of isolate R3265.c06 (clade AE) (HIV); assay: cell-based or functional assay
test.readout: IC50 (µg/ml) with constrains (µg/mL)
One number for each entry, in µg/mL.

Please review the entries below; each comes with its answer.
ePGDM5 (antibody, V domains shown) VH: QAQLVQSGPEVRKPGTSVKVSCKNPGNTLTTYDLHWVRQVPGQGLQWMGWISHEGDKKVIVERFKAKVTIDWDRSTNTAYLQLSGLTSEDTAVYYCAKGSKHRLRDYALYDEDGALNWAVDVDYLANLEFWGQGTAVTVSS VL: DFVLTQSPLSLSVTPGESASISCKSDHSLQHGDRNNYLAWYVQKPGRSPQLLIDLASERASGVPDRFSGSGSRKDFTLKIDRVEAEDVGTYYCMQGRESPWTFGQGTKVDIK : 0.028
PGDM1400 (antibody, V domains shown) VH: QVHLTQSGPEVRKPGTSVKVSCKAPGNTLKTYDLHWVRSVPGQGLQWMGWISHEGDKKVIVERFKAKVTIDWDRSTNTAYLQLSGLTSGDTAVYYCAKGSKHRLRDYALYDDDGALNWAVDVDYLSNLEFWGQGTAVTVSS VL: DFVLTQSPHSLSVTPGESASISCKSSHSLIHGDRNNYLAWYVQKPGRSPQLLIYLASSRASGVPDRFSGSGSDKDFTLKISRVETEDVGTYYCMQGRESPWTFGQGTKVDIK : 0.019
ePGDM13 (antibody, V domains shown) VH: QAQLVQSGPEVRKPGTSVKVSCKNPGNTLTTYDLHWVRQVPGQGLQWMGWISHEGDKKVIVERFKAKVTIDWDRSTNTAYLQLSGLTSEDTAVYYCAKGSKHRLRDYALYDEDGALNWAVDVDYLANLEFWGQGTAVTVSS VL: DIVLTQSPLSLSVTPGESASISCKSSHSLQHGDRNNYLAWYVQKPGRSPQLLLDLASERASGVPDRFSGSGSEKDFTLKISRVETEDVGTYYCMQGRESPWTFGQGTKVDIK : 0.026

// moving on: another record for IC50 (µg/ml) with constrains
Input line: Can you look up the measured IC50 (µg/ml) with constrains of ePGDM9 (antibody, V domains shown) VH: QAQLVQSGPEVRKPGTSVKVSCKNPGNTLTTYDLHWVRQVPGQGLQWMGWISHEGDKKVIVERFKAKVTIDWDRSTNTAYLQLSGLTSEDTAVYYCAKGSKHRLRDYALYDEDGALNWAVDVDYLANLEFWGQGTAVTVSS VL: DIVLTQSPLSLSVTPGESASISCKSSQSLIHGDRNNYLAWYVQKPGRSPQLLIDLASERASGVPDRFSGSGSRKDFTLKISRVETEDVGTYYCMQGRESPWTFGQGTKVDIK for me?
Output line: 0.019
